src = the supplement of paper PMC3545927

- experimental system: furin, P09958;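 further: purified furin at 1:10 enzyme:substrate in 50 mM HEPES pH 7.5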
- Sequence (P09958 whole entry): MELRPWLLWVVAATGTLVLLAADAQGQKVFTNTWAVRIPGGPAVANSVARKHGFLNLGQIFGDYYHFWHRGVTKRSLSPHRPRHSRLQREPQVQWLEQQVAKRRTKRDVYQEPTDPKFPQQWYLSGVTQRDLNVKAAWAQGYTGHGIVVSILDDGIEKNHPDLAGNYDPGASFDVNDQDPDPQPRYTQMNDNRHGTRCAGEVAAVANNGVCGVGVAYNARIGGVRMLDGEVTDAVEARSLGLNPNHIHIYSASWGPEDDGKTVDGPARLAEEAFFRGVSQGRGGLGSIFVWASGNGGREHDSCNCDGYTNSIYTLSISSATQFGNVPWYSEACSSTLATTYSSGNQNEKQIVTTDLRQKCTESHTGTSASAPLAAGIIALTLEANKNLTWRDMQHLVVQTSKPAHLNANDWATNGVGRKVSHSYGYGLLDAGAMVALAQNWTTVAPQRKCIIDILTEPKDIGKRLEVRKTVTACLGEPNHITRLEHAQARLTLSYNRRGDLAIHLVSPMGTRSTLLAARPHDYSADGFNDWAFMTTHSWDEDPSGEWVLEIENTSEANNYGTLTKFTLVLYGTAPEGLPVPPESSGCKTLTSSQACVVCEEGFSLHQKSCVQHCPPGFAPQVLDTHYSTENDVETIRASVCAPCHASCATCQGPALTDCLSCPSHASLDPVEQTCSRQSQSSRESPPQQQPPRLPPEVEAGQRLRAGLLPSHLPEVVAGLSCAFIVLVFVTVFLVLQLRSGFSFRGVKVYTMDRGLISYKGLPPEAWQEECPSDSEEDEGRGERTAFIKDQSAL
- test: furin cleavage Z-score vs untreated control; higher = more cleavage, active = 3.5 or more, inactive = 1 or less, 8 variable residues between constant flanks
- assay context: 30 min
This is one part of the list. The hit rate among all sequences tested is not known here.

| seq text | furin cleavage Z-score |
| --- | --- |
| CARVKRVSHSAGNASASA [FS-2619] | 1.16 |
| CARVPRDWDPAGNASASA [FS-1940] | 1.11 |
| CARVKRRLLMAGNASASA [FS-2318] | 5.21 (active) |
| CARQKRRAKPAGNASASA [FS-1864] | 6.66 (active) |
| CAEVPCHRQSAGNASASA [HC2402] | 1.17 |
| CARQKRNKIPAGNASASA [FS-2290] | 0.672 (inactive) |
| CAEVPCHRPMAGNASASA [HC2406] | -0.487 (inactive) |
